B1: ZNF263 (parent)
chain: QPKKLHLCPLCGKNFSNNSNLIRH

Variants of: B1
assay-summary: protein stability index of a GFP-peptide fusion (GPS, HEK-293T) (PSI 1-6); higher = more stable;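 further: lentivirally expressed fusions sorted by FACS into six bins by GFP to DsRed ratio, PSI derived from sequencing read proportions per bin multiplied by bin number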
setup-conditions: c terminus: a fixed tail appended
endpoint-label: protein stability index
// print number alone

Study these solved cases before continuing.
# variant-identifier, protein stability index
measured = [
    ("C11N", 2.8),
    ("P9N", 2.4),
    ("C11H", 2.88),
    ("N14F", 2.69),
    ("C11I", 2.16),
]

Look up protein stability index for this variant: L21W
2.44

Query (variant): S19Y ; field requested: protein stability index
2.6

Suppose we examine the variant C8H ; what protein stability index value has been reported?
2.38

# input variant: N20G ; wanted: its protein stability index
2.46

What value of protein stability index has been reported for the following variant? C8R
2.56

Look at this variant and give its reported protein stability index. S16M
2.96

Tell me the measured protein stability index of K13V , please.
2
